Tested on: SK-MEL-5
protocol_details: NCI tumour cell line growth inhibition, 48 h
Activity calls are given as the source filed them. No stated cut-off is given here; in the data, active = GI50 up to about 1.1 µM and inactive = higher.
Hi! Could you answer with just one of these? Yes = active, No = inactive

Use these answered entries as a reference point.
>  <compound>
O=c1[nH]cc(COCC(F)(F)C(F)(F)C(F)(F)C(F)F)c(=O)[nH]1

>  <class_name>
No

$$$$
>  <compound>
CC(=O)Nc1ccc(C(=O)NN2C(=O)C(Cl)C2c2cc(Br)cc(Br)c2O)cc1 (stereo not drawn)

>  <class_name>
No

$$$$
>  <compound>
C/C1=C/C(=O)O[C@@H]2C[C@@H](CC[C@H](C)/C=C\C=C\CC1)O[C@@](O)([C@@H]1CSC(=O)N1)C2

>  <class_name>
Yes

$$$$
>  <compound>
CC(C)C(O)(C(=O)OCN1C(=O)C2C3C=CC(C2C1=O)C1C2C(=O)N(COC(=O)C(O)(C(C)C)C(C)O)C(=O)C2C31)C(C)O (stereo not drawn)

>  <class_name>
No

$$$$
>  <compound>
Cn1c(=O)c2nc(-c3ccc(Cl)cc3)oc2n(C)c1=O

>  <class_name>
No

$$$$

### Prompt Could you kindly confirm the outcome this assay logged for CCN(CC)CCCNc1n[n+]([O-])c2ccccc2[n+]1[O-] ?
### Response No

### Prompt Which outcome did this test record for the compound C[n+]1ccn2c3nc4ccccc4nc3c([O-])c(C#N)c21 ?
### Response No

### Prompt Please indicate how the test categorized COC(=O)/C([Se]c1c(C)cc(C)cc1C)=C(/[Se]c1c(C)cc(C)cc1C)C(=O)OC .
### Response No

### Prompt Dear all, I need the recorded test outcome for CCCCCCCC(=O)OC[n+]1cccc(-c2c(COC(=O)NC(C)C)c(COC(=O)NC(C)C)c3n2CCC3)c1 , thank you.
### Response No

### Prompt Which result was noted for this compound in the test: CC(C)=CC[S+]([O-])c1ccccc1NC1=CC(=O)CC(C)(C)C1 (stereo not drawn)
### Response No

* * *

Tested on: COLO 205
protocol_details: NCI tumour cell line growth inhibition, 48 h
Active and inactive are the calls of the source. Rule as the data show it: active = GI50 up to about 1.1 µM and inactive = higher.
Catalogue of GI50 values

Worked set:
>  <compound>
NC12c3c4cccc3Oc3cccc(c31)Oc1cccc(c12)O4

>  <endpoint>
GI50

>  <measured_result>
> 50 µM (inactive)

$$$$
>  <compound>
CC(=O)Nc1ccc(C(=O)NN2C(=O)C(Cl)C2c2cc(Br)cc(Br)c2O)cc1 (stereo not given)

>  <endpoint>
GI50

>  <measured_result>
> 100 µM (inactive)

$$$$
>  <compound>
COC(=O)NN1C(C)=C(C(=O)OC)C2(C#N)C(C(=O)OC)=C(C)N(NC(=O)OC)C12N (stereo not given)

>  <endpoint>
GI50

>  <measured_result>
> 100 µM (inactive)

$$$$
>  <compound>
CC1CN=C(N(C)C(=O)Nc2ccc(Cl)cc2)S1 (stereo not given)

>  <endpoint>
GI50

>  <measured_result>
13.4 µM (inactive)

$$$$
>  <compound>
CCC(COC(=O)CC[C@@H](NC(=O)C(C)NC(=O)C(C)OC1C(O)C(CO)OC(OCc2ccccc2)C1NC(C)=O)C(N)=O)NC1c2ccccc2Nc2cccc([N+](=O)[O-])c21 (stereo not given in full)

>  <endpoint>
GI50

>  <measured_result>
> 100 µM (inactive)

$$$$

### Prompt Query the reported GI50 for COLO 205; item: CC(=O)N(C(C)=O)n1c(Cc2ccc(C)cc2)nn(C(C)=O)c1=O
### Response > 100 µM (inactive)

### Prompt # get_value(readout= GI50, system= COLO 205) for C=C1CCCC2OC(OC)CCC12 (stereo not given)
### Response > 100 µM (inactive)

### Prompt # value lookup — system COLO 205, readout GI50, item Nn1c(Sc2nc3ccccc3c(=O)n2N)nc2ccccc2c1=O
### Response 13.8 µM (inactive)

### Prompt // map CSc1nc(SC)c2c(C)cn(COCCOC(=O)c3ccccc3)c2n1 to recorded GI50 (system: COLO 205)
### Response > 100 µM (inactive)

### Prompt Look up GI50 with COLO 205 for this compound: C[n+]1ccn2c3nc4ccccc4nc3c([O-])c(C#N)c21
### Response > 100 µM (inactive)

### Prompt GI50 of CCN(CCCOc1ccccc1)CCN(CC)CCCOc1ccccc1 on COLO 205?
### Response 5.86 µM (inactive)

### Prompt Missing value: GI50, COLO 205, entry CCCCCCCC(=O)OC[n+]1cccc(-c2c(COC(=O)NC(C)C)c(COC(=O)NC(C)C)c3n2CCC3)c1 . Fill in?
### Response > 87.7 µM (inactive)

### Prompt For COLO 205, provide GI50 of CCC(=O)/C=C/c1ccccc1 please.
### Response > 100 µM (inactive)

### Prompt API: value(readout=GI50, system=COLO 205) for record Cc1cc(S(=O)(=O)Nc2nc3ccccc3nc2-c2cccc([N+](=O)[O-])c2)c(S)cc1Cl
### Response 16.3 µM (inactive)

### Prompt Provide value of GI50 for this record tested with COLO 205: Cc1cc(C)n(CCNCCn2nc(C)cc2C)n1
### Response > 100 µM (inactive)

### Prompt So what GI50 did COc1cccc2nc3ccccc3nc12 get with COLO 205?
### Response 90.2 µM (inactive)

### Prompt Requested read-out GI50, target or system COLO 205, entry CC(C)C[S+]1C2=C(CC(C)(C)CC2=O)[N-]c2ccccc21 (stereo not given)
### Response > 100 µM (inactive)

### Prompt Give GI50 (COLO 205) of the following compound: CCOC(=O)COc1cc(-c2ccccc2F)nc2cc3c(cc12)OCO3
### Response > 100 µM (inactive)

* * *

Below, each entry is listed with its recorded GI50.
Tested on: NCI/ADR-RES
protocol_details: NCI tumour cell line growth inhibition, 48 h
Active and inactive are the calls of the source. Rule as the data show it: active = GI50 up to about 1.1 µM and inactive = higher.

>  <molecule>
O=c1cc(CNC2CCCC2)[nH]c(=O)[nH]1

>  <GI50>
> 100 µM (inactive)

$$$$
>  <molecule>
Cc1[nH]n(-c2nc(-c3ccccc3)cc(=O)[nH]2)c(=O)c1CCO

>  <GI50>
71.1 µM (inactive)

$$$$

### Prompt Entry under review: CCCCCCCN(CCCCCCC)CC(O)c1cc2ccccc2c2cc(Br)ccc12 (stereo not given) . Reported GI50?
### Response > 100 µM (inactive)

### Prompt What value of GI50 has been reported for the following molecule? CCC1CC(=O)N(SCC(N)C(=O)O)C1=O (stereo not given)
### Response > 100 µM (inactive)

### Prompt I have this molecule here, CCN1C[C@]2(C)CC[C@H](OC)C34C5C[C@@H]6[C@@H](OC)C[C@@](OC)(C5[C@H]6OCc5ccccc5)C(C13)[C@H](OC(C)=O)[C@@H]42 (stereo not given in full) , and I need its recorded GI50.
### Response > 100 µM (inactive)

* * *

Tested on: SK-MEL-2
protocol_details: NCI tumour cell line growth inhibition, 48 h
Active and inactive are the calls of the source. No stated cut-off is given here; in the data, active = GI50 up to about 1.1 µM and inactive = higher.
Valid outcomes are listed here; reply with one: 1 for active, -1 for inactive

>  <compound>
Cc1ccc(Cc2n[nH]c(=O)[nH]2)cc1

>  <target_entity>
SK-MEL-2

>  <class_name>
-1

$$$$
>  <compound>
O=C(N/N=C\c1ccc([N+](=O)[O-])s1)c1ccncc1

>  <target_entity>
SK-MEL-2

>  <class_name>
-1

$$$$
>  <compound>
Cc1ccc(/C=N/n2c(=O)[nH]c3ccccc3c2=O)cc1

>  <target_entity>
SK-MEL-2

>  <class_name>
-1

$$$$
>  <compound>
O=C1NN=C(c2c[nH]c3ccccc23)CC1NCc1ccccc1 (stereo not given)

>  <target_entity>
SK-MEL-2

>  <class_name>
-1

$$$$
>  <compound>
Cc1ccc(S(=O)(=O)N(CCNC(=O)c2cccc(O)c2O)c2cc3c4c(c2)Oc2cccc5c2C4(C)c2c(cccc2O3)O5)cc1

>  <target_entity>
SK-MEL-2

>  <class_name>
-1

$$$$

### Prompt Outcome? CCCCCCCC/C=C1\CCC(CN2CCOCC2)C1=O (stereo not given)
### Response -1

### Prompt Given O=c1[nH]cc(COCC(F)(F)C(F)(F)C(F)(F)C(F)F)c(=O)[nH]1 , state the outcome it received in this test.
### Response -1

### Prompt Any idea what this test logged for OC[C@@H]1CC#C/C=C\C#CC[C@@H]1CO ?
### Response -1

### Prompt Which outcome was assigned to Fc1ccc(Nc2nc(Cl)c3nc[nH]c3n2)cc1Cl in this test?
### Response -1

### Prompt For this compound, state the assay outcome: CO[C@@H]1C[C@H](OC(N)=O)[C@@H]2C=C[C@@H]3/C=C(C)/C=C/[C@@H](C)[C@H](/C(C)=C/[C@@H](C)NC(C)=O)OC(=O)/C=C/C=C(C)\C=C\[C@]3(C)[C@@H]2C1 [SUPERSTOLIDE B]
### Response 1

### Prompt // return assay outcome for CC(C)=CC[S+]([O-])c1ccccc1NC1=CC(=O)CC(C)(C)C1 (stereo not given)
### Response -1

### Prompt // outcome(item) with item = CC1CN=C(Nc2ccccc2)S1 (stereo not given)
### Response -1

### Prompt Per the assay record, what outcome was assigned to CCSc1nc(C)nc2c1sc1nc3ccccc3n12 ?
### Response -1

### Prompt Recorded test outcome, item NC12c3c4cccc3Oc3cccc(c31)Oc1cccc(c12)O4
### Response -1

### Prompt What was the test verdict on CC1OC(OC2C(O[C@@H]3C[C@@H]4CC[C@@H]5[C@H](CC[C@]6(C)[C@@H]7[C@H](C[C@@H]56)O[C@]5(CC[C@@H](C)CO5)[C@H]7C)[C@@]4(C)C[C@H]3O)OC(CO)C(OC3OC(CO)C(O)C(O)C3O)C2O)C(O)C(O)C1O (stereo not given in full) ?
### Response -1

### Prompt # outcome recorded in this test, key = O=S(=O)(Nc1nc2ccccc2nc1Nc1ccc2ccccc2c1)c1ccccc1
### Response -1

### Prompt What did the test return for CC1CC2=C(C1)C(C1(C)C(=O)CC3C(C1=O)C3(C)C)C(C)C2=O (stereo not given) ?
### Response -1

### Prompt // outcome(item) with item = CC(=O)OCC1=C(CCC#N)N2C(=O)C(NC(=O)Cc3cccs3)C2[S+]([O-])C1 (stereo not given)
### Response -1

### Prompt Status in this test for COc1ccc(-c2c3c(n(C4OC(CO)C(O)C(O)C4O)c(=S)c2C#N)CCCC3)cc1 (stereo not given) ?
### Response -1

### Prompt Tell me the recorded outcome of this test for CCC12C=CCN3CC[C@]4(C(=C(C(=O)OC)[C@@H]1Nc1ncnc5c1ncn5C1OC(COC(C)=O)C(OC(C)=O)C1OC(C)=O)Nc1ccccc14)C32 (stereo not given in full) .
### Response -1
